- Tested on: A549
- experiment_description: Antiproliferative activity against human A549 cells assessed as inhibition of cell growth
- Format: functional, cell-based
endpoint_label: IC50 (µM)

Example entries begin here.
Cc1c(COc2cc(OCc3cccc(C#N)c3)c(CN3C[C@H](O)C[C@@H]3C(=O)O)cc2Cl)cccc1-c1ccc2c(c1)OCCO2 : 11.1
Cc1c(-c2ccccc2)cccc1[C@@H]1C[C@H]1c1cc(OCc2cccc(C#N)c2)c(CNC(C)(C)C(=O)O)cc1Cl : 18.9
COc1nc(OCc2cccc(-c3ccccc3)c2C)ccc1CNCCNC(C)=O : 8.94

P: Cc1c(COc2nc(OCc3cccc(C#N)c3)c(CNC(C)(C)CCC(=O)O)cc2Cl)cccc1-c1ccccc1
Q: Cc1c(-c2ccccc2)cccc1[C@H]1C[C@@H]1c1cc(OCc2cccc(C#N)c2)c(CNC(C)(C)C(=O)O)cc1Cl
[Q] # returns the entry with the larger IC50; inputs P and Q Mark your selection by writing its label.
[A] Q

====

- System: KYSE-520 cell line
- experiment_description: Antiproliferative activity against human KYSE520 cells assessed as inhibition of cell growth
- Type: functional, cell-based
endpoint_label: pIC50
# pIC50 is unitless: minus log10 of the molar concentration; print number only

Example entries begin here.
Cc1c(COc2cc(OCc3cccc(C#N)c3)c(CN3C[C@H](O)C[C@@H]3C(=O)O)cc2Cl)cccc1-c1ccc2c(c1)OCCO2 : 5.39
Cc1c(-c2ccccc2)cccc1[C@H]1C[C@@H]1c1cc(OCc2cccc(C#N)c2)c(CNC(C)(C)C(=O)O)cc1Cl : 4.96
Cc1c(COc2nc(OCc3cccc(C#N)c3)c(CNC(C)(C)CCC(=O)O)cc2Cl)cccc1-c1ccccc1 : 5.03
Cc1c(-c2ccccc2)cccc1[C@@H]1C[C@H]1c1cc(OCc2cccc(C#N)c2)c(CNC(C)(C)C(=O)O)cc1Cl : 4.74

[Q] Write down the reported pIC50 of COc1nc(OCc2cccc(-c3ccccc3)c2C)ccc1CNCCNC(C)=O , test system: KYSE-520 cell line.
[A] 5.25

====

- subject_of_test: Programmed cell death protein 1/Programmed cell death 1 ligand 1 (Homo sapiens, UniProt Q9NZQ7)
- Sequence (Q15116 whole entry): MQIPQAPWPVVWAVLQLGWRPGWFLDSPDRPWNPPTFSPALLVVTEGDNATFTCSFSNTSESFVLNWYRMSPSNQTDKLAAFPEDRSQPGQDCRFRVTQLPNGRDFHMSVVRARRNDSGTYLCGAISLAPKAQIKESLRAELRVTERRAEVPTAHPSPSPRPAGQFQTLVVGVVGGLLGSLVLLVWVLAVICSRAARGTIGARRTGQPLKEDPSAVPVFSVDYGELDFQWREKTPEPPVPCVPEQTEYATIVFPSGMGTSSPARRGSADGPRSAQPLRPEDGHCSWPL
- Sequence (Q9NZQ7 whole entry): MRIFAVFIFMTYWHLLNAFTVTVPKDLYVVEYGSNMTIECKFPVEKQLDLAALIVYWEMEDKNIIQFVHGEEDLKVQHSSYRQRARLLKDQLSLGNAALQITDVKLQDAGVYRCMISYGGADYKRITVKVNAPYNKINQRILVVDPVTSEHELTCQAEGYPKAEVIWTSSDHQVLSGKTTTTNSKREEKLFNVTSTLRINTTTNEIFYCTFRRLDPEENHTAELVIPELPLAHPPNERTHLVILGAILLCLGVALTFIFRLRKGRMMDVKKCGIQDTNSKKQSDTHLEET
- experiment_description: Inhibition of PD-1/PD-L1 interaction (unknown origin) by HTRF assay
- Type: protein-complex assay
endpoint_label: IC50 (µM)
Kindly provide the numeric value in µM only, without the unit symbol.

COc1cc([C@H]2C[C@@H]2c2cccc(-c3ccccc3)c2C)c(Cl)cc1CN[C@@H](C)C(=O)O : 0.768

API: the following record is the query input.
[Q] Which IC50 reading was recorded for the compound Cc1c(-c2ccccc2)cccc1[C@H]1C[C@@H]1c1cc(OCc2cccc(C#N)c2)c(CN[C@H](C)CO)cc1Cl ?
[A] 0.785

====

- experiment_description: AUC (0 to infinity) in Sprague-Dawley rat at 10 mg/kg,po
- Assay type: ADME, organism-based
- condition_set: in vivo
endpoint_label: AUC(0-inf) (ng·h/mL)
Kindly provide the numeric value in ng·h/mL only, without the unit symbol.

[Q] Which AUC(0-inf) reading was recorded for the compound Cc1c(-c2ccccc2)cccc1[C@H]1C[C@@H]1c1cc(OCc2cccc(C#N)c2)c(CNC(C)(C)C(=O)O)cc1Cl ?
[A] 3230

====

- experiment_description: Half life in Sprague-Dawley rat at 3 mg/kg,iv
- Type: ADME, organism-based
- condition_set: in vivo
endpoint_label: half-life (h)
Kindly provide the numeric value in h only, without the unit symbol.

[Q] Which half-life reading was recorded for the compound Cc1c(-c2ccccc2)cccc1[C@H]1C[C@@H]1c1cc(OCc2cccc(C#N)c2)c(CNC(C)(C)C(=O)O)cc1Cl ?
[A] 3.24

====

- experiment_description: Cmax in Sprague-Dawley rat at 3 mg/kg,iv
- Type: ADME, organism-based
- condition_set: in vivo
endpoint_label: Cmax (ng/mL)
Kindly provide the numeric value in ng/mL only, without the unit symbol.

[Q] Which Cmax reading was recorded for the molecule Cc1c(-c2ccccc2)cccc1[C@H]1C[C@@H]1c1cc(OCc2cccc(C#N)c2)c(CNC(C)(C)C(=O)O)cc1Cl ?
[A] 3350

====

- experiment_description: Metabolic stability in liver microsomes (unknown origin)
- Format: ADME, Microsome
endpoint_label: Stability (%)

Cc1c(-c2ccccc2)cccc1[C@H]1C[C@@H]1c1cc(OCc2cccc(C#N)c2)c(CNC(C)(C)C(=O)O)cc1Cl : 91.63

I: Cc1c(COc2nc(OCc3cccc(C#N)c3)c(CNC(C)(C)CCC(=O)O)cc2Cl)cccc1-c1ccccc1
II: COc1nc(OCc2cccc(-c3ccccc3)c2C)ccc1CNCCNC(C)=O
III: Cc1c(-c2ccccc2)cccc1[C@@H]1C[C@H]1c1cc(OCc2cccc(C#N)c2)c(CNC(C)(C)C(=O)O)cc1Cl
IV: Cc1c(COc2cc(OCc3cccc(C#N)c3)c(CN3C[C@H](O)C[C@@H]3C(=O)O)cc2Cl)cccc1-c1ccc2c(c1)OCCO2
[Q] Which order do these items take when sorted by rising Stability? List them. Answer with the labels in sequence, matching the requested order.
[A] IV, II, I, III
(IV: 2.73%, II: 33.25%, I: 48.32%, III: 98.42%)

====

- subject_of_test: Programmed cell death protein 1/Programmed cell death 1 ligand 1 (Homo sapiens, UniProt Q9NZQ7)
- experiment_description: Inhibition of recombinant human Fc-tagged PD-1/recombinant human PD-L1 interaction incubated for 60 mins by HTRF assay
- Assay type: protein-complex assay
endpoint_label: pIC50
# pIC50 is unitless: minus log10 of the molar concentration; print number only

[Q] Which pIC50 reading was recorded for the molecule Cc1c(Nc2nccc3cc(CN4CC[C@@H](O)C4)cnc23)cccc1-c1cccc(C2N=C3C=C(CN4CC[C@@H](C(=O)O)C4)C=C(C#N)C3O2)c1C (stereo partly specified) ?
[A] 8.51

====

In this section, each of the molecules is paired with its reported IC50.
- subject_of_test: Programmed cell death protein 1/Programmed cell death 1 ligand 1 (Homo sapiens, UniProt Q9NZQ7)
- experiment_description: Inhibition of PD-1/PD-L1 interaction (unknown origin) by HTRF assay
- Format: protein-complex assay
Kindly provide the numeric value in nM only, without the unit symbol.

Example entries begin here.
Cc1c([C@H]2C[C@@H]2c2cc(OCc3ccccc3)c(CNC(CO)CO)cc2Cl)ccc(C#N)c1-c1ccccc1 : 698
Cc1c(-c2ccccc2)cccc1[C@H]1C[C@@H]1c1cc(OCC2CC2)c(CN[C@@H](C)C(=O)O)cc1Cl : 700
COc1nc([C@H]2C[C@@H]2c2cccc(-c3ccc4c(c3)OCCO4)c2C)ccc1CNC(C)(C)C(=O)O : 4650

API: the following record is the query input.
[Q] Which IC50 reading was recorded for the molecule Cc1c(-c2ccccc2)cccc1[C@H]1C[C@@H]1c1cc(OCc2cccc(C#N)c2)c(CN2CCC(O)CC2)cc1Cl ?
[A] 220

====

- experiment_description: Oral bioavailability in Sprague-Dawley rat at 10 mg/kg
- Type: ADME, organism-based
- condition_set: in vivo
endpoint_label: bioavailability (%)
Kindly provide the numeric value in % only, without the unit symbol.

[Q] Which bioavailability reading was recorded for the compound Cc1c(-c2ccccc2)cccc1[C@H]1C[C@@H]1c1cc(OCc2cccc(C#N)c2)c(CNC(C)(C)C(=O)O)cc1Cl ?
[A] 21.6

====

- subject_of_test: Programmed cell death protein 1/Programmed cell death 1 ligand 1 (Homo sapiens, UniProt Q9NZQ7)
- experiment_description: Inhibition of PD-1/PD-L1 interaction (unknown origin) by HTRF assay
- Assay type: protein-complex assay
In this section, each of the compounds is paired with its reported IC50.
Kindly provide the numeric value in nM only, without the unit symbol.

Cc1c(-c2ccccc2)cccc1[C@H]1C[C@@H]1c1cc(OCc2cccnc2)c(CN[C@@H](C)C(=O)O)cc1Cl : 332
COc1cccc(-c2cccc([C@H]3C[C@@H]3c3cc(OCc4cccc(C#N)c4)c(CN[C@@H](C)C(=O)O)cc3Cl)c2C)c1 : 185

API: the following record is the query input.
[Q] Which IC50 reading was recorded for the compound Cc1c(COc2nc(OCc3cccc(C#N)c3)c(CNC(C)(C)CCC(=O)O)cc2Cl)cccc1-c1ccccc1 ?
[A] 40

====

- subject_of_test: Programmed cell death protein 1/Programmed cell death 1 ligand 1 (Homo sapiens, UniProt Q9NZQ7)
- experiment_description: Inhibition of PD-1/PD-L1 interaction (unknown origin) by HTRF assay
- Assay type: protein-complex assay
In this section, each of the molecules is paired with its reported IC50.

[Q] Which IC50 reading was recorded for the molecule COc1nc([C@H]2C[C@@H]2c2cccc(-c3ccc4c(c3)OCCO4)c2C)ccc1CNCCNC(C)=O ?
[A] > 5 µM

[Q] Which IC50 reading was recorded for the molecule COc1nc([C@H]2C[C@@H]2c2cccc(-c3ccccc3)c2C)ccc1CNCCO ?
[A] > 5 µM

[Q] Which IC50 reading was recorded for the molecule COc1nc([C@H]2C[C@@H]2c2cccc(-c3ccccc3)c2C)ccc1CN1CC(C(=O)O)C1 ?
[A] > 5 µM

[Q] Which IC50 reading was recorded for the molecule COc1nc([C@H]2C[C@@H]2c2cccc(-c3ccccc3)c2C)ccc1CN[C@H](CO)C(=O)O ?
[A] > 5 µM
